Reference for the values: ChEMBL document CHEMBL5724914

Procedure Details: The drug is tested on Z-020 corresponding to rabbit gut metagenome with ENA study accession number: PRJEB37062 and ENA sample accession number: ERS12561819 for biotransformation under anaerobic condition. The drug concentrations were measured over 9 timepoints collected between 0 and 24 hours of incubation by liquid-chromatography-coupled mass spectrometry (LC–MS); further: call rule not given here
Experimental Conditions: 2 µM
Assay Metric: Bacterial Biotransformation

Reference set (5 entries):
{"columns": ["Compound", "Bacterial Biotransformation"],
 "data": [
  ["CC(=O)CCCCn1c(=O)c2c(ncn2C)n(C)c1=O", "Compound NOT metabolized"],
  ["O=C(O)CCC(=O)O.O=C(O[C@H]1CN2CCC1CC2)N1CCc2ccccc2[C@@H]1c1ccccc1 [SOLIFENACIN SUCCINATE]", "Compound metabolized"],
  ["CCN(CC)CCOC(=O)C1(C2CCCCC2)CCCCC1", "Compound NOT metabolized"],
  ["Br.CN1CCC[C@@H]1Cc1c[nH]c2ccc(CCS(=O)(=O)c3ccccc3)cc12 [ELETRIPTAN HYDROBROMIDE]", "Compound NOT metabolized"],
  ["CC[C@@]1(O)C(=O)OCc2c1cc1n(c2=O)Cc2cc3c(CN(C)C)c(O)ccc3nc2-1", "Compound NOT metabolized"]
]}

Data request: Bench note: what Bacterial Biotransformation did COc1cc(C(=O)NCc2ccc(OCCN(C)C)cc2)cc(OC)c1OC [TRIMETHOBENZAMIDE] show?
Data returned: Compound NOT metabolized

Data request: Bench note: what Bacterial Biotransformation did CN1CCN2c3ccccc3Cc3ccccc3C2C1 (centres undefined) show?
Data returned: Compound NOT metabolized

Data request: Bench note: what Bacterial Biotransformation did CC(C)[C@H]1CC[C@H](C(=O)N[C@H](Cc2ccccc2)C(=O)O)CC1 [NATEGLINIDE] show?
Data returned: Compound metabolized

Data request: Bench note: what Bacterial Biotransformation did CCc1oc2ccccc2c1C(=O)c1cc(Br)c(O)c(Br)c1 show?
Data returned: Compound metabolized

* * *

Experimental Conditions: human gut metagenome, 24 h, 2 µM
Assay Metric: Bacterial Biotransformation

Reference set (5 entries):
{"columns": ["Compound", "Bacterial Biotransformation"],
 "data": [
  ["CC(C)[C@H]1CC[C@H](C(=O)N[C@H](Cc2ccccc2)C(=O)O)CC1 [NATEGLINIDE]", "Compound metabolized"],
  ["CC(=O)O[C@H]1C(=O)[C@@]2(C)[C@H]([C@H](OC(=O)c3ccccc3)[C@]3(O)C[C@H](OC(=O)[C@H](O)[C@@H](NC(=O)c4ccccc4)c4ccccc4)C(C)=C1C3(C)C)[C@]1(OC(C)=O)CO[C@@H]1C[C@@H]2O [PACLITAXEL]", "Compound NOT metabolized"],
  ["CN1CCN2c3ccccc3Cc3ccccc3C2C1 (stereo not given) [MIANSERIN]", "Compound NOT metabolized"],
  ["CCOc1ccc2nc(S(N)(=O)=O)sc2c1 [ETHOXZOLAMIDE]", "Compound NOT metabolized"],
  ["CCS(=O)(=O)CCn1c([N+](=O)[O-])cnc1C [TINIDAZOLE]", "Compound metabolized"]
]}

Data request: Bench note: what Bacterial Biotransformation did O=C1N=C([O-])NC1(c1ccccc1)c1ccccc1.[Na+] [PHENYTOIN SODIUM] show?
Data returned: Compound NOT metabolized

Data request: Bench note: what Bacterial Biotransformation did CC(CCc1ccccc1)NCC(O)c1ccc(O)c(C(N)=O)c1 (stereo not given) [LABETALOL] show?
Data returned: Compound NOT metabolized

Data request: Bench note: what Bacterial Biotransformation did COC(=O)C(c1ccccc1)C1CCCCN1 (stereo not given) [METHYLPHENIDATE] show?
Data returned: Compound NOT metabolized

Data request: Bench note: what Bacterial Biotransformation did CC(C)c1nc(N(C)S(C)(=O)=O)nc(-c2ccc(F)cc2)c1/C=C/[C@@H](O)C[C@@H](O)CC(=O)[O-].CC(C)c1nc(N(C)S(C)(=O)=O)nc(-c2ccc(F)cc2)c1/C=C/[C@@H](O)C[C@@H](O)CC(=O)[O-].[Ca+2] [ROSUVASTATIN CALCIUM] show?
Data returned: Compound NOT metabolized

Data request: Bench note: what Bacterial Biotransformation did CN1CCN(C2=Nc3ccccc3Oc3ccc(Cl)cc32)CC1.O=C(O)CCC(=O)O [LOXAPINE SUCCINATE] show?
Data returned: Compound NOT metabolized

Data request: Bench note: what Bacterial Biotransformation did CN1[C@@H]2CC[C@H]1C[C@@H](OC(=O)c1c[nH]c3ccccc13)C2 [TROPISETRON] show?
Data returned: Compound NOT metabolized

Data request: Bench note: what Bacterial Biotransformation did O=C(O)c1cc(/N=N/c2ccc(S(=O)(=O)Nc3ccccn3)cc2)ccc1O [SULFASALAZINE] show?
Data returned: Compound metabolized

* * *

Procedure Details: The drug is tested on Z-016 corresponding to mouse gut metagenome with ENA study accession number: PRJEB37062 and ENA sample accession number: ERS12561815 for biotransformation under anaerobic condition. The drug concentrations were measured over 9 timepoints collected between 0 and 24 hours of incubation by liquid-chromatography-coupled mass spectrometry (LC–MS)
Experimental Conditions: 2 µM
Assay Metric: Bacterial Biotransformation

{"columns": ["Compound", "Bacterial Biotransformation"],
 "data": [
  ["CC(C)C[C@H]1C(=O)N2CCC[C@H]2[C@]2(O)O[C@](NC(=O)[C@@H]3C=C4c5cccc6[nH]c(Br)c(c56)C[C@H]4N(C)C3)(C(C)C)C(=O)N12.CS(=O)(=O)O [BROMOCRIPTINE MESYLATE]", "Compound metabolized"],
  ["CN1CCN2c3ccccc3Cc3ccccc3C2C1 (stereo not given)", "Compound NOT metabolized"],
  ["CN[C@H]1CC[C@@H](c2ccc(Cl)c(Cl)c2)c2ccccc21", "Compound NOT metabolized"],
  ["CN(C)C(=O)Oc1cc(OC(=O)N(C)C)cc(C(O)CNC(C)(C)C)c1 (stereo not given)", "Compound NOT metabolized"],
  ["CC(=O)CCCCn1c(=O)c2c(ncn2C)n(C)c1=O", "Compound NOT metabolized"],
  ["OCCN(CCO)c1nc(N2CCCCC2)c2nc(N(CCO)CCO)nc(N3CCCCC3)c2n1", "Compound NOT metabolized"]
]}

Data request: Bench note: what Bacterial Biotransformation did OC(c1cc(C(F)(F)F)nc2c(C(F)(F)F)cccc12)C1CCCCN1 (stereo not given) show?
Data returned: Compound NOT metabolized

Data request: Bench note: what Bacterial Biotransformation did O=C1N=C([O-])NC1(c1ccccc1)c1ccccc1.[Na+] [PHENYTOIN SODIUM] show?
Data returned: Compound NOT metabolized

Data request: Bench note: what Bacterial Biotransformation did CCCN1C[C@H](CSC)C[C@@H]2c3cccc4[nH]cc(c34)C[C@H]21.CS(=O)(=O)O [PERGOLIDE MESYLATE] show?
Data returned: Compound NOT metabolized

Data request: Bench note: what Bacterial Biotransformation did Nc1nc(N)nc(-c2cc(Cl)ccc2Cl)n1.O=C(O)/C=C\C(=O)O [IRSOGLADINE MALEATE] show?
Data returned: Compound NOT metabolized

Data request: Bench note: what Bacterial Biotransformation did CCOc1ccccc1OCCN[C@H](C)Cc1ccc(OC)c(S(N)(=O)=O)c1.Cl [TAMSULOSIN HYDROCHLORIDE] show?
Data returned: Compound NOT metabolized

Data request: Bench note: what Bacterial Biotransformation did C#C[C@]1(OC(C)=O)CC[C@H]2[C@@H]3CCC4=C[C@@H](OC(C)=O)CC[C@@H]4[C@H]3CC[C@@]21C [ETHYNODIOL DIACETATE] show?
Data returned: Compound metabolized

Data request: Bench note: what Bacterial Biotransformation did CC(C)c1nc(N(C)S(C)(=O)=O)nc(-c2ccc(F)cc2)c1/C=C/[C@@H](O)C[C@@H](O)CC(=O)[O-].CC(C)c1nc(N(C)S(C)(=O)=O)nc(-c2ccc(F)cc2)c1/C=C/[C@@H](O)C[C@@H](O)CC(=O)[O-].[Ca+2] show?
Data returned: Compound NOT metabolized

Data request: Bench note: what Bacterial Biotransformation did N=C(N)NC(=O)Cc1c(Cl)cccc1Cl show?
Data returned: Compound NOT metabolized

Data request: Bench note: what Bacterial Biotransformation did O=C(O)c1cc(/N=N/c2ccc(S(=O)(=O)Nc3ccccn3)cc2)ccc1O show?
Data returned: Compound metabolized

* * *

Experimental Conditions: human gut metagenome, 24 h, 2 µM
Assay Metric: Bacterial Biotransformation

Reference set (9 entries):
{"columns": ["Compound", "Assay Metric", "Observed"],
 "data": [
  ["COc1ccc(C(CN(C)C)C2(O)CCCCC2)cc1 (stereo not given)", "Bacterial Biotransformation", "Compound metabolized"],
  ["Nc1nnc(-c2cccc(Cl)c2Cl)c(N)n1", "Bacterial Biotransformation", "Compound metabolized"],
  ["CNCC[C@H](Oc1cccc2ccccc12)c1cccs1", "Bacterial Biotransformation", "Compound metabolized"],
  ["CC[C@@]1(O)C(=O)OCc2c1cc1n(c2=O)Cc2cc3c(CN(C)C)c(O)ccc3nc2-1", "Bacterial Biotransformation", "Compound NOT metabolized"],
  ["COC(=O)C(c1ccccc1)C1CCCCN1 (stereo not given) [METHYLPHENIDATE]", "Bacterial Biotransformation", "Compound NOT metabolized"],
  ["CC12CC3CC(C)(C1)CC(N)(C3)C2 [MEMANTINE]", "Bacterial Biotransformation", "Compound NOT metabolized"],
  ["CC(=O)CCCCn1c(=O)c2c(ncn2C)n(C)c1=O", "Bacterial Biotransformation", "Compound metabolized"],
  ["CC1Cc2ccccc2N1NC(=O)c1ccc(Cl)c(S(N)(=O)=O)c1 (stereo not given) [INDAPAMIDE]", "Bacterial Biotransformation", "Compound NOT metabolized"],
  ["Br.CN1CCC[C@@H]1Cc1c[nH]c2ccc(CCS(=O)(=O)c3ccccc3)cc12 [ELETRIPTAN HYDROBROMIDE]", "Bacterial Biotransformation", "Compound NOT metabolized"]
]}

Alright, here's another compound for you.
Data request: Bench note: what Bacterial Biotransformation did Clc1cccc(Cl)c1N=C1NCCN1 show?
Data returned: Compound metabolized
